Ref: patent US20240158438A1

Molecular target: CYP 2D6 (Homo sapiens (Human))
Sequence (P10635 whole entry): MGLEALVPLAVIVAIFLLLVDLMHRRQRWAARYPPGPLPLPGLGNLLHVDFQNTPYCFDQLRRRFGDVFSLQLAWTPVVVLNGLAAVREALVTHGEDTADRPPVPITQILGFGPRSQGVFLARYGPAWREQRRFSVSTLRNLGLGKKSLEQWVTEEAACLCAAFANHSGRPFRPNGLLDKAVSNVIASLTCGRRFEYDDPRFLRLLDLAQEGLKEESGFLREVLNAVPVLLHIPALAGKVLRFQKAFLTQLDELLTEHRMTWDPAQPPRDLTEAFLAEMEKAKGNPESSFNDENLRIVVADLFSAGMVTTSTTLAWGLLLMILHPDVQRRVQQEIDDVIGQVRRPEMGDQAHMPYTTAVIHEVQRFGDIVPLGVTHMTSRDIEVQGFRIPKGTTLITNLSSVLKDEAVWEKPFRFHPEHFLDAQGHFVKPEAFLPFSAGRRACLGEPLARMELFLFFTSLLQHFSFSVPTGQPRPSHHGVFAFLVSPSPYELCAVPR
Type: in vitro ADME
Conditions: microsomes, 10 min
Description: Human liver microsomes containing cytochrome P450 (0.253 mg/mL protein) were incubated with test compounds (0.05-50 μM), CYPs substrates (10 μM […], 5 μM diclofenac, 30 μM mephenytoin, 5 μM dextromethorphan hydrobromide and 2 μM midazolam) and 1.0 mM NADP at 37° C. for 10 min. Naphthoflavone, sulfaphenazole, N-3-benzylnirvanol, quinidine and ketoconazole were used as reference inhibitors.
Non-standard residues stand in square brackets, D forms with d. Residues, ends and D or L forms follow the SMILES beside them. *: point of attachment. Pyrrolidine3carbonyl(3S) = O=C([C@H]1CCNC1)*; dBta = N[C@H](Cc1csc2ccccc12)C(=O)O; Api = NC1(C(=O)O)CCNCC1; Abu = CC[C@H](N)C(=O)O
# maps each entry to its IC50

MOLECULE	IC50
CC[C@H](N)C(=O)N[C@H](Cc1csc2ccccc12)C(=O)N[C@H](Cc1c[nH]c2ccccc12)C(=O)N[C@@H](Cc1ccccc1)C(=O)NC1(C(N)=O)CCNCC1 [Compound 3] (H-[Abu][dBta][dW]F[Api]-NH2)	> 50 µM

Look at this molecule and give its reported IC50. NCCCC[C@@H](NC(=O)[C@H](Cc1ccccc1)NC(=O)[C@@H](Cc1c[nH]c2ccccc12)NC(=O)[C@@H](Cc1csc2ccccc12)NC(=O)[C@H]1CCNC1)C(N)=O [Compound 56] ({Pyrrolidine3carbonyl(3S)}-[dBta][dW]F[dK]-NH2)
> 50 µM
